- system: T1, ZFP SBS#307 (synthetic)
- T1 chain: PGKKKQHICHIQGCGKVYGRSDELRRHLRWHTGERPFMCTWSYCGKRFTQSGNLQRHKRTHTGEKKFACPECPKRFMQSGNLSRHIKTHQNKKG
- assay_protocol: EMSA
- run_parameters: tags: MBP fusion
property_measured: Kd (nM)
Respond numerically; units are nM and should not be typed.

Hello, please tell me recorded Kd for this one: GAAGAAGCG (dsDNA) DNA 1: GAAGAAGCG DNA 2: CGCTTCTTC 50.5
